All figures here come from ChEMBL document CHEMBL1201862.

tested on: RPMI-8226; test: NCI tumour cell line growth inhibition, 48 h
Activity calls are given as the source filed them. No stated cut-off is given here; in the data, active = GI50 up to about 1.1 µM and inactive = higher.
RESULT TYPE: GI50

COMPOUND	GI50
CC(=O)Nn1c(=S)[nH]c2ccccc21	> 100 µM (inactive)
CN(C(=O)CC(=O)CP(=O)(c1ccccc1)c1ccccc1)c1ccccc1	> 100 µM (inactive)
CC(=O)OC1(C)C(=O)OC1(C)C(C)=O (stereo not drawn)	> 100 µM (inactive)
CCCCNC(=O)c1cc2c(cc1Cl)Sc1nccn1S2(=O)=O	> 100 µM (inactive)
CC(=O)NCCCCNCCCNC(C)=O	> 100 µM (inactive)
Cc1cccc(O)c(=O)c1	7.6 µM (inactive)

Dear colleague, could you send me GI50 for each of the items below? Thanks.
1. O=c1c2c([N+](=O)[O-])cccc2nc2[nH]c3ccccc3n12
2. O=C1C(Cl)C2(CC(/C=C/c3ccccc3O)=NN2c2cccc(S(=O)(=O)O)c2)N1c1nc2ccccc2s1 (stereo not drawn)
3. CCSCCC(N)C(=O)O (stereo not drawn)
4. COC(=O)C(N)CCCC(N)C(=O)NC(C)C(=O)NC(CCC(=O)NCCNCCNc1c2ccccc2nc2cccc([N+](=O)[O-])c12)C(N)=O (stereo not drawn)
5. CCOc1ccccc1NC(=O)CSc1nnc(Cc2ccccc2)o1
6. COC(=O)NCCc1n[nH]c2c1C(=O)C=C(Nc1ccccc1OC)C2=O

1. 64.1 µM (inactive)
2. 12.1 µM (inactive)
3. > 100 µM (inactive)
4. 5.32 µM (inactive)
5. 35.6 µM (inactive)
6. 20.5 µM (inactive)

Dear colleague, could you send me GI50 for each of the items below? Thanks.
1. Cc1cccc(C(C)C)c1NC(=O)C(=O)CC(=O)c1sc(Nc2ccccc2Cl)nc1C
2. COc1ccc2[nH]c3c([N+](=O)[O-])ccc(Cl)c3c(=O)c2c1
3. CC(=O)OCC1OC(n2cnc3nc(Br)[nH]c(=O)c32)C(OC(C)=O)C1OC(C)=O (stereo not drawn)

1: 13.3 µM (inactive); 2: 17.4 µM (inactive); 3: > 100 µM (inactive)

====

system: HT-29; assay: NCI tumour cell line growth inhibition, 48 h
Activity calls are given as the source filed them. No stated cut-off is given here; in the data, active = GI50 up to about 1.1 µM and inactive = higher.
Kindly supply the reported GI50 values for the records listed here.

Would you please look over these solved cases?
COMPOUND	GI50
c1cc2nsnc2c2c[nH]cc12	> 100 µM (inactive)
C[C@]12CC[C@H]3[C@@H](CCC4=CC(=O)CC[C@@]43C)[C@@H]1CC[C@@H]2OC(=O)c1cccc2c(=O)c3ccccc3[nH]c12	43.8 µM (inactive)
Cc1cc(-c2nc3cc(F)ccc3s2)ccc1NC(=O)[C@@H](N)CCCCN	2.82 µM (inactive)
C[N+]1(CCC(=O)c2ccco2)CC2CCC(CC2)C1 (stereo not given)	> 100 µM (inactive)
O=C1c2c[nH]nc2C(c2ccccc2)N1c1ccccc1 (stereo not given)	> 10 µM (inactive)
O=c1ccn(C2OC(CO)C(O)C2[Se]c2ccccc2)c(=O)[nH]1 (stereo not given)	> 100 µM (inactive)
Cc1cccc(O)c(=O)c1	19 µM (inactive)
COC1=CC(=O)c2c(ccc3ncnc(N)c23)C1=O	2.1 µM (inactive)
CC(=O)OCC1OC(n2cccnc2=O)C(OC(C)=O)C1OC(C)=O (stereo not given)	> 100 µM (inactive)
O=C(OCc1ccccc1[N+](=O)[O-])N1c2ccccc2[C@@]23O[C@]24CCC[C@H]3C#C/C=C\C#C[C@H]14	38.1 µM (inactive)

Dear colleague, could you send me GI50 for each of the items below? Thanks.
1. COC(=O)C1CCC(N2C(=O)CCC2C(=O)OC)=N1 (stereo not given)
2. CC(C)n1c(=O)[nH]n(-c2ccccc2)c1=O
3. CC(C)CCC1(O)O[C@H]2C[C@H]3[C@@H]4CCC5CC(=O)C=C[C@]5(C)[C@H]4CC[C@]3(C)[C@H]2[C@@H]1C (stereo not given in full)
4. CC(OC(=O)NCn1cc(-c2ccccc2)nn1)c1ccccc1 (stereo not given)
5. CSC(C1c2ccccc2N(C)C2=NC(=O)N(C)C(=O)C21Cl)S(=O)(=O)c1ccc(C)cc1 (stereo not given)
6. CCCCCCCCCCCCCCCCCCNc1nc(=O)n(C2CC(O)C(COP(=O)(O)OCC(COP(=O)(O)OC3C(CO)OC(n4ccc(N)nc4=O)C3O)OCCCCCCCCCCCCCCCCCC)O2)cc1F (stereo not given)
7. CN(C)c1n/c(=N/Cc2ccccn2)ss1

1: > 100 µM (inactive); 2: > 100 µM (inactive); 3: 7.64 µM (inactive); 4: 25.6 µM (inactive); 5: 34.1 µM (inactive); 6: 79.1 µM (inactive); 7: > 10 µM (inactive)

Dear colleague, could you send me GI50 for each of the items below? Thanks.
1. COC(=O)c1c(C(=O)OC)c2c3ccccc3n(C)c2c2c1c1ccccc1n2C
2. CO/N=C1\CC(NC(=O)CNC(=O)OC(C)(C)C)c2ccsc21 (stereo not given)
3. CCOC(=O)NC(=O)c1cn(CCCCCOC(=O)NCCCCCCNC(=O)OCCCCCn2cc(C(=O)NC(=O)OCC)c(=O)[nH]c2=O)c(=O)[nH]c1=O

> 100 µM (inactive)
> 100 µM (inactive)
> 100 µM (inactive)

====

test system: A498; assay: NCI tumour cell line growth inhibition, 48 h
Active and inactive are the calls of the source. Cut-off read from the data, not from the text of the source: active = GI50 up to about 1.1 µM and inactive = higher.
Kindly supply the reported GI50 values for the records listed here.

Would you please look over these solved cases?
MOLECULE	ASSAY SYSTEM	GI50
C(=C1\CCC/C(=C/c2ccccc2)C1=NNc1ccccc1)/c1ccccc1	A498	> 100 µM (inactive)
Cc1cc2c(c(C(N)=O)c1C)-c1cccc(F)c1C2=O	A498	45.5 µM (inactive)

Dear colleague, could you send me GI50 for each of the items below? Thanks.
1. CC1(C)CC[C@]2(C(=O)O)CC[C@]3(C)C(=CC[C@@H]4[C@@]5(C)C[C@H](O)[C@H](O)[C@@](C)(C(=O)O)[C@@H]5CC[C@]43C)[C@@H]2C1
2. CN1Nc2ccccc2CC1=O
3. N=C(CC(=O)Nc1ccc(Cl)cc1)Nc1ccccc1
4. Cc1ccc(S(=O)(=O)Nn2c(O)c(C#N)c(-c3ccc(Cl)cc3)c(C#N)c2=O)cc1
5. O=C1C=C(c2ccccc2)OC1C1Sc2ccccc2NC1=O (stereo not given)
6. O=c1[nH]c2c(O)cccc2c2cc3c(c(O)c12)OCO3
7. Cc1nc(O)c2ncn(CCO)c2n1
8. CC1(C)OC(COP2OCCO2)[C@H](COP2OCCO2)O1 (stereo not given in full)

1: > 100 µM (inactive); 2: > 100 µM (inactive); 3: > 100 µM (inactive); 4: > 100 µM (inactive); 5: 7.89 µM (inactive); 6: 21.2 µM (inactive); 7: > 100 µM (inactive); 8: > 100 µM (inactive)

====

system: KM-20L2; assay: NCI tumour cell line growth inhibition, 48 h
Activity calls are given as the source filed them. No stated cut-off is given here; in the data, active = GI50 up to about 1.1 µM and inactive = higher.
RESULT TYPE: GI50

Would you please look over these solved cases?
MOLECULE	RESULT
Cc1cccc(O)c(=O)c1	22.8 µM (inactive)
O=P1(c2ccccc2)CCCCC1	> 100 µM (inactive)

Dear colleague, could you send me GI50 for each of the items below? Thanks.
1. Cc1cc(O)nc(NN2C(Cl)C(=O)C2c2ccc([N+](=O)[O-])cc2)n1 (centres undefined)
2. COc1cc(C2c3cc4c(cc3[C@@H](Nc3ccc(N(C)C)cc3)[C@H]3COC(=O)C23)OCO4)cc(OC)c1O (some centres undefined)

["17.1 µM (inactive)", "0.708 µM (active)"]

====

system: EKVX; test: NCI tumour cell line growth inhibition, 48 h
Calls of active or inactive are those of the source. Rule as the data show it: active = GI50 up to about 1.1 µM and inactive = higher.
Kindly supply the reported GI50 values for the records listed here.

COMPOUND	RESULT
CN(C(=O)CC(=O)CP(=O)(c1ccccc1)c1ccccc1)c1ccccc1	> 100 µM (inactive)
O=C(O)CCCSc1ccccc1	> 100 µM (inactive)

Dear colleague, could you send me GI50 for each of the items below? Thanks.
1. C/C(Cl)=N/OC(=O)Nc1ccc(F)c([N+](=O)[O-])c1
2. O=C1OCC2=C1C(c1ccc(Cl)cc1)c1cc3c(cc1O2)OCO3 (stereo unspecified)
3. CC1(C)COC(c2cccc(C(=O)c3ccccc3)c2)=N1
4. Cc1cccc(O)c(=O)c1
5. COC(=O)[C@H](Cc1ccccc1)NC(=O)OCC1OC(n2cc(C)c(=O)[nH]c2=O)CC1N=[N+]=[N-] (stereo partly specified)
6. Cc1ccc(S(=O)(=O)NNC(=O)c2sc(-c3nc(C)c(C(=O)NNS(=O)(=O)c4ccc(C)cc4)s3)nc2C)cc1
7. COc1ccc2[nH]c3c([N+](=O)[O-])ccc(Cl)c3c(=O)c2c1
8. Oc1cccc(-c2cc(=S)ss2)c1

["16.3 µM (inactive)", "21 µM (inactive)", "34.9 µM (inactive)", "23.6 µM (inactive)", "> 100 µM (inactive)", "> 100 µM (inactive)", "44.1 µM (inactive)", "16.1 µM (inactive)"]

Dear colleague, could you send me GI50 for each of the items below? Thanks.
1. CC(=O)OC12c3ccccc3-c3ccccc3C1C(C(=O)O)C2(Cl)C(=O)O (stereo unspecified)
2. COc1ccc(C(=C2C(=O)OC(=O)C2=C(C)C)c2ccc(OC)cc2)cc1

> 10 µM (inactive)
27 µM (inactive)
